- Test system: Shionogi mouse mammary carcinoma cells
- test: In vitro androgenic/antiandrogenic activity, DHT-stimulated Shionogi cell number
- Format: cell-based
- conditions: inhibition of DHT-stimulated cell number, 10-12 days; read-out: Shionogis (In Vitro) IC50
pIC50: −log10 of the molar value.
readoutName: pIC50

• C[C@@H]1CCC2C3CCc4c(C#N)cccc4C3CC[C@]2(C)[C@H]1O (stereo partly shown) [EM-3803] = 8.07

* * *

- System: Hamster's ear sebaceous glands
- test: Topical antiandrogenic activity, histomorphometry of the ear sebaceous glands in the hamster
- Format: in vivo, Male Golden Syrian hamster
- conditions: Mesocricetus auratus, 336 h, dose 3 μg applied topically on left ear of intact male hamster, once daily, 14 days, sebaceous gland area, read-out: Antiandrogenic activity in Hamster's sebaceous glands Inh. Vs Cx (%)
readoutName: inhibition in vivo at 0.003 mg (%)

- CC[C@@H]1CC2C3CCc4c(C#N)cccc4C3CC[C@]2(C)[C@H]1O (stereo partly drawn): 66.6
- CC[C@]1(C)CC2C3CCc4c(C#N)cccc4C3CC[C@]2(C)[C@H]1O (stereo partly drawn): 29.6
- CCCC#C[C@@H]1CC2C3CCc4c(C#N)cccc4C3CC[C@]2(C)[C@H]1O (stereo partly drawn): 14.3
- CC1(C)C[C@H]2[C@@H]3CCc4cc(F)ccc4[C@H]3CC[C@]2(C)[C@H]1O: 62.9
- CC(C)C#C[C@]1(O)CCC2C3CCc4c(C#N)cccc4C3CC[C@@]21C (stereo partly drawn): 66.6
- CC(=O)O[C@H]1C(C)(C)CC2C3CCc4c(C#N)cccc4C3CC[C@@]21C (stereo partly drawn): 9.5
- CC#C[C@@H]1CC2C3CCc4c(C#N)cccc4C3CC[C@]2(C)[C@H]1O (stereo partly drawn): 42.8
- CC1(C)CC2C3CCc4c(C#N)cccc4C3CC[C@]2(C)[C@H]1O (stereo partly drawn): 42.8
- CCC1(CC)CC2C3CCc4c(C#N)cccc4C3CC[C@]2(C)C1=O (stereo partly drawn): 14.8
